experimentNotes: Oral bioavailability was determined; range 49-102%
Type: ADME, organism-based
assayConditions: in vivo, read-out: Bioavailabiility
quantityName: bioavailability (%)
Give the value in % but do not write % after it.

The molecule listed as O=S(=O)(Nc1cccc(OCc2ccc3ccccc3n2)c1)C(F)(F)F [RITOLUKAST] has a reported bioavailability of 49

###

targetDesc: Polyunsaturated fatty acid 5-lipoxygenase (Rattus norvegicus, UniProt P12527)
experimentNotes: The compound was tested for inhibitory activity against 5-lipoxygenase in rat polymorphonuclear leukocytes[PMNS]
Type: cell-based
quantityName: IC50 (µM)
Give the value in µM but do not write µM after it.

Past entries and their recorded results:
CCCc1c(OCC(O)COc2cccc(NC(=O)C(=O)OCC)c2C#N)ccc(C(C)=O)c1O (stereo unspecified): 32
c1ccc2nc(COc3cccc4ccccc34)ccc2c1: 0.4
CCN(CC)C(=O)N(C)C[C@H](O)c1cccc(OCc2ccc3ccccc3n2)c1: 2
c1cc(Cc2nnn[nH]2)cc(OCc2ccc3ccccc3n2)c1: 6.2
O=C(O)c1ccccc1Nc1cccc(OCc2ccc3ccccc3n2)c1 [SR-2640]: 10

The compound listed as "CCCCC[C@H](O)c1cccc(OCc2cccc(CC(=O)O)c2)c1" has a reported IC50 of 2.5

###

targetDesc: Polyunsaturated fatty acid 5-lipoxygenase (Rattus norvegicus, UniProt P12527)
Sequence (P12527 whole entry): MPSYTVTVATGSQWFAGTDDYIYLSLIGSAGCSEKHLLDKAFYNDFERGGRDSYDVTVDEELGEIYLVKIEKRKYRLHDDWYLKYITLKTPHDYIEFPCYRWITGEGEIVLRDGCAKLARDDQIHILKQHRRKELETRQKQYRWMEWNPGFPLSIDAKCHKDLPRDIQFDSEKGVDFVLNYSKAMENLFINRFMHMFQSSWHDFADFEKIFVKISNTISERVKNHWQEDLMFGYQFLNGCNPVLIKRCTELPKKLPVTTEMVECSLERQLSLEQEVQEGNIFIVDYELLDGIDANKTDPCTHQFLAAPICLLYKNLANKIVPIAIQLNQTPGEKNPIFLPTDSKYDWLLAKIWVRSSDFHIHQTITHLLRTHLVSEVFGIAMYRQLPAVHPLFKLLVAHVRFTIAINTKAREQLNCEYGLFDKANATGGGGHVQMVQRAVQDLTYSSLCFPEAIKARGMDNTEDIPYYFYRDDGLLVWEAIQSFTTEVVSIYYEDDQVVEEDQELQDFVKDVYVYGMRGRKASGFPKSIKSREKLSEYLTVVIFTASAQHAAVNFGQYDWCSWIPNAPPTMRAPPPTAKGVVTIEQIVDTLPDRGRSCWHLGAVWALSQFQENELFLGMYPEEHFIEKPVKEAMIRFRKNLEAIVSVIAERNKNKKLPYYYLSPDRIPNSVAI
experimentNotes: The compound was tested for inhibitory activity against 5-lipoxygenase using rat polymorphonuclear leukocytes[PMNS]
quantityName: IC50

Oc1ccccc1OCc1ccc2ccccc2n1: 53 µM

Please examine the following record next.
The compound listed as "Oc1cccc(OCc2ccc3ccccc3n2)c1" has a reported IC50 of 6.07 µM

###

targetDesc: Polyunsaturated fatty acid 5-lipoxygenase (Rattus norvegicus, UniProt P12527)
experimentNotes: The compound was tested for inhibitory activity against 5-Lipoxygenase in rat RBL-1
Format: cell-based
quantityName: IC50 (nM)
Give the value in nM but do not write nM after it.

CC(c1ccoc1)N(O)C(N)=O (stereo not drawn): 11000
COc1c(OC)c(OC(C)=O)c2cc(Cl)ccc2c1OC(C)=O: 500

The molecule listed as "COc1ccc(-n2nc(CCC(=O)N(C)O)cc2-c2ccc(Cl)cc2)cc1" has a reported IC50 of 150

###

Species: Rattus norvegicus
experimentNotes: The compound was tested for inhibitory activity against […] synthesis in rat macrophages
Format: functional
quantityName: pIC50
Note on units: pIC50 is unitless, being -log10 of a concentration expressed in mol/L.

The compound listed as "CC1=C(C)C(=O)C(CCCCC#CCCCC#CCO)=C(C)C1=O" has a reported pIC50 of 7.10

###

targetDesc: Polyunsaturated fatty acid 5-lipoxygenase (Homo sapiens, UniProt P09917)
experimentNotes: The compound was tested for inhibitory activity against LT synthesis in human polymorphonuclear leukocytes[PMNS]
Format: cell-based
quantityName: pIC50
Note on units: pIC50 is unitless, being -log10 of a concentration expressed in mol/L.

The compound listed as "CC(C)c1ccc2c(c1)c(SC(C)(C)C)c(CC(C)(C)C(=O)O)n2Cc1ccc(Cl)cc1" has a reported pIC50 of 7.22

###

Species: Rattus norvegicus
experimentNotes: The compound was tested for inhibitory activity against synthesis of immunoreactive LTB4
Format: functional
quantityName: pIC50
Note on units: pIC50 is unitless, being -log10 of a concentration expressed in mol/L.

The molecule listed as "O=S(=O)(Nc1cccc(OCc2ccc3ccccc3n2)c1)C(F)(F)F" has a reported pIC50 of 5.34

###

targetDesc: Polyunsaturated fatty acid 5-lipoxygenase (Rattus norvegicus, UniProt P12527)
experimentNotes: The compound was tested for inhibitory activity against 5-lipoxygenase in rat RBL-1
Format: cell-based
quantityName: IC50 (nM)
Give the value in nM but do not write nM after it.

GET /values?item= "CCN1C(=S)N(c2ccc(N3CCN(c4ccc(O)cc4)CC3)cc2)C(=O)C1(C)C" &system= Polyunsaturated fatty acid 5-lipoxygenase (Rattus norvegicus, UniProt P12527) returns IC50: 500

###

targetDesc: Polyunsaturated fatty acid 5-lipoxygenase (Mus musculus, UniProt P48999)
Sequence (P48999 whole entry): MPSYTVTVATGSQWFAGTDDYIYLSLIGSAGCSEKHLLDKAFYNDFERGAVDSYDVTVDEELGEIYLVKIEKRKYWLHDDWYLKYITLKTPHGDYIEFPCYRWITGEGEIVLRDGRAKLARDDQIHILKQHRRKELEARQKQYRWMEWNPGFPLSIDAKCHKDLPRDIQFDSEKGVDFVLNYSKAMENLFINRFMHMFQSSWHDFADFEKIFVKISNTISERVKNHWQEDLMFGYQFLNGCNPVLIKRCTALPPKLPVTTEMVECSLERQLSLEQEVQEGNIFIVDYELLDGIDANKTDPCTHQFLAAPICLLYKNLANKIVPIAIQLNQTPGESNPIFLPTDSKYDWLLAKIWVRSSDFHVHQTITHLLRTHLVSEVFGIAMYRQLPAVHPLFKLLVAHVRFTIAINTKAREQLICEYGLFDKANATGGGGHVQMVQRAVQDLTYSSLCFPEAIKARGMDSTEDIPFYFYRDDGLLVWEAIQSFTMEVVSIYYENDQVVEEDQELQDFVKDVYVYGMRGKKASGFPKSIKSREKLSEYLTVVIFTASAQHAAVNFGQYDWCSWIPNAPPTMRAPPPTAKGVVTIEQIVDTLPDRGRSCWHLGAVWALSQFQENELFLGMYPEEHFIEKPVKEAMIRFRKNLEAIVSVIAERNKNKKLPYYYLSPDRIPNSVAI
experimentNotes: The compound was tested for inhibitory activity against 5-lipoxygenase in mouse macrophages
quantityName: pIC50
Note on units: pIC50 is unitless, being -log10 of a concentration expressed in mol/L.

The compound listed as "c1ccc2nc(COc3cccc4ccccc34)ccc2c1" has a reported pIC50 of 6.70

###

targetDesc: Polyunsaturated fatty acid 5-lipoxygenase (Rattus norvegicus, UniProt P12527)
Sequence (P12527 whole entry): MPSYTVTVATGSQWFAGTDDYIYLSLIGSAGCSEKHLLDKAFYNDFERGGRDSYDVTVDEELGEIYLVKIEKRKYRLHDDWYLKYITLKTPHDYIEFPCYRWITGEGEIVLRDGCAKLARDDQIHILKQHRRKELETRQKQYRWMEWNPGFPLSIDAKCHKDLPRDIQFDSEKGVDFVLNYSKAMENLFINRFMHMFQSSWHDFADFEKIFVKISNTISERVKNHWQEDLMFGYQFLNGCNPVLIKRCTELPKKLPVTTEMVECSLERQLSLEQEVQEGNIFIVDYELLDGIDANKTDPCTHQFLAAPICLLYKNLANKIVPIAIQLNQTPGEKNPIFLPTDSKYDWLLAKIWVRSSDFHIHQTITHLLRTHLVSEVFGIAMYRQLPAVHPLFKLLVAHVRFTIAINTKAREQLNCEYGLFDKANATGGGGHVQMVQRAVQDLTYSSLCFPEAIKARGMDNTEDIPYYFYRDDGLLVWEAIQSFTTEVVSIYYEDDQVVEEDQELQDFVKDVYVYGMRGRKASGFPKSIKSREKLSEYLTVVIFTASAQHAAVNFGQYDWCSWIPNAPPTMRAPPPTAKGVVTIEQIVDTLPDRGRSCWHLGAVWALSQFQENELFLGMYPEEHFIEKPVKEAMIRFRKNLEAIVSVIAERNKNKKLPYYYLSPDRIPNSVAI
experimentNotes: The compound was tested for inhibitory activity against 5-Lipoxygenase in rat polymorphonuclear leukocytes[PMNS]
Format: cell-based
quantityName: pIC50
Note on units: pIC50 is unitless, being -log10 of a concentration expressed in mol/L.

GET /values?item= "Cc1ccc(S(=O)(=O)NC(=O)c2cccc(OCc3ccc4ccccc4n3)c2)cc1" &system= Polyunsaturated fatty acid 5-lipoxygenase (Rattus norvegicus, UniProt P12527) returns pIC50: 5.41

###

Species: Rattus norvegicus
experimentNotes: The compound was tested for inhibition of [3H]LTD4 binding to lung membrane
quantityName: Ki (nM)
Give the value in nM but do not write nM after it.

The molecule listed as c1ccc(Cc2nn[nH]n2)c(COc2ccc(OCc3ccc4ccccc4n3)cc2)c1 [RG-12525] has a reported Ki of 3

###

targetDesc: Polyunsaturated fatty acid 5-lipoxygenase (Rattus norvegicus, UniProt P12527)
experimentNotes: The compound was tested for inhibitory activity against 5-lipoxygenase translocation inhibitor in rat RBL-2H3 cells
Format: functional, cell-based
quantityName: pIC50
Note on units: pIC50 is unitless, being -log10 of a concentration expressed in mol/L.

The compound listed as "CC(C)c1ccc2c(c1)c(SC(C)(C)C)c(CC(C)(C)C(=O)O)n2Cc1ccc(Cl)cc1" has a reported pIC50 of 8.30

###

Property: IC50; scope: individual molecules
targetDesc: Polyunsaturated fatty acid 5-lipoxygenase (Homo sapiens)
Sequence (P09917 whole entry): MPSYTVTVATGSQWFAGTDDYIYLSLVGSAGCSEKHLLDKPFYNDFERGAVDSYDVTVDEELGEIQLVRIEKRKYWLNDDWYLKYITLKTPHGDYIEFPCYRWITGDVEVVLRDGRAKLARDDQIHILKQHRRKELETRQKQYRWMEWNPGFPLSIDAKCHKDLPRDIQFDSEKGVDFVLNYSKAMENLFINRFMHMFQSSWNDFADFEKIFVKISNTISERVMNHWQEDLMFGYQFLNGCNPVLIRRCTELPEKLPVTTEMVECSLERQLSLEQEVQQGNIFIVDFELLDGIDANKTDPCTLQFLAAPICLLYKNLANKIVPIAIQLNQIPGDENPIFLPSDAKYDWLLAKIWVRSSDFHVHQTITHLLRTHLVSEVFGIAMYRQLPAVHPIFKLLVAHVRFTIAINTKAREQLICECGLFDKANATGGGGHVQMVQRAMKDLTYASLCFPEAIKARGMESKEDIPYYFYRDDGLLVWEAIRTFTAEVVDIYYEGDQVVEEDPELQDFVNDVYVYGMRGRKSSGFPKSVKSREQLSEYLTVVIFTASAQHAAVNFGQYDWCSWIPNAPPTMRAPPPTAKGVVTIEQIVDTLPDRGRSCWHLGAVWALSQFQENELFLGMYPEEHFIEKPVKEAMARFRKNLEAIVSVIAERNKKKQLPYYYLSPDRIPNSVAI
Give the value in µM but do not write µM after it.

O=C(CCCCCCCCc1ccccc1)NO: 6

The molecule listed as "CSc1ccccc1/C=C/C(=O)N(C)O" has a reported IC50 of 0.1

Provenance of the data: ChEMBL document CHEMBL1125472
